Reference for the values: patent US20180371100A1

# testedTarget: T1, FLAG fusion human CRTH2 (human, UniProt Q9Y5Y4 1-395)
# T1 construct: Expressed on rat 3Y1-B cells; also called human CRTH2 with a C terminal to which a FLAG tag was added; not shown: FLAG tag at the C terminal
# T1 sequence: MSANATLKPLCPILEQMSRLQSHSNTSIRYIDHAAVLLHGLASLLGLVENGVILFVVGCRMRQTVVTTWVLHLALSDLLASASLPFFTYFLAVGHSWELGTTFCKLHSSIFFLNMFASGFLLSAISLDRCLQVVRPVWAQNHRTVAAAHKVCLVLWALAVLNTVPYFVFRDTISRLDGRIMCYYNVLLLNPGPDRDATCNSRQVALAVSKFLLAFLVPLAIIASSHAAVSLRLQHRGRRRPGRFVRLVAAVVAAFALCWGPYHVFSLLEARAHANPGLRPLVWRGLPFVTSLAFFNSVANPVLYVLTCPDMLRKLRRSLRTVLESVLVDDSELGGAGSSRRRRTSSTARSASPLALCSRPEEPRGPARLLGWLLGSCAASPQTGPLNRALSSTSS
# protocolSummary: flow cytometry on FLAG fusion human CRTH2-expressing 3Y1-B cells; logistic fit of Geomean; ± is the standard error
propertyMeasured: EC50 (mg/L)
Hi! Could you send only the number? It should be in mg/L, unit omitted.

humanized Lym2 antibody LV0HV1 (antibody, V domains shown, also called humanized anti-human CRTH2 antibody LV0HV1) VH: EVQLVESGGGVVQPGRSLRLSCAASGFTFSNYYMAWVRQAPGKGLEWVATISYDGSSTYYRDSVKGRFTISRDNAKNSLYLQMNSLRAEDTATYYCARHRGYYYSGAGYFDYWGQGTMVTVSS VL: DIVMTQTPLSLPVTPGESASISCRSSQSLEYSDGYTYLEWYLQKPGQSPQVLIYGVSNRFSGVPDRFSGSGSGTDFTLKISRVEAEDVGVYYCFQATHDPLTFGQGTKLEIK : 0.78

Consider now this further binder.
Param item = humanized Lym2 antibody LV1HV4 (antibody, V domains shown) VH: EVQLVESGGGVVQPGRSMRLSCAASGFTFSNYYMAWVRQAPGKGLEWVATISYDGSSTYYRDSVKGRFTISRDNAKSSLYLQMNSLRAEDTATYYCARHRGYYYSGAGYFDYWGQGVMVTVSS VL: DIVMTQTPLSLPVTLGESASISCRSSQSLEYSDGYTYLEWYLQKPGQSPQVLIYGVSNRFSGVPDRFSGSGSGTDFTLKISRVEAEDVGVYYCFQATHDPLTFGQGTKLEIK ; retrieve measured EC50.
0.58
